// data source = patent US20080181886A1

experimental-target: human BAFF (human, UniProt Q9Y275 82-285, limits assumed)
Sequence (Q9Y275 82-285 limits assumed): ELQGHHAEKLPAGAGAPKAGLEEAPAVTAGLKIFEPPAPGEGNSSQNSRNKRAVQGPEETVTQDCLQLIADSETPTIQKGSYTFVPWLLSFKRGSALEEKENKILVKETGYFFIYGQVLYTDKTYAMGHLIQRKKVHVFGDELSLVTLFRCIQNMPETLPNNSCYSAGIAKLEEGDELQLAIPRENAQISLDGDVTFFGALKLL
assay-method-text: NNS library, phage display;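 further: ligand versus display occurrence-to-degeneracy ratio and higher means enriched by binding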
Measured F' BAFF values are reported for all entries that follow.
Keep it simple and answer with nothing but the number.

[
  {
    "binder": "SLSCRKEQGKTYDHLLRDCISCASICGQHPKQCAYFCENKLR (receptor, phage library variant, format as m9) [TACI_d2 F78T]",
    "F' BAFF": 0
  },
  {
    "binder": "SLSCRKEQGKFQDHLLRDCISCASICGQHPKQCAYFCENKLR (receptor, phage library variant, format as m9) [TACI_d2 Y79Q]",
    "F' BAFF": 0
  },
  {
    "binder": "SLSCRKEQGKIYDHLLRDCISCASICGQHPKQCAYFCENKLR (receptor, phage library variant, format as m9) [TACI_d2 F78I]",
    "F' BAFF": 10
  },
  {
    "binder": "SLSCRKEQGKFYDHLLRDCISCASACGQHPKQCAYFCENKLR (receptor, phage library variant, format as m9) [TACI_d2 I92A]",
    "F' BAFF": 0
  },
  {
    "binder": "SLSCRKEQGKQYDHLLRDCISCASICGQHPKQCAYFCENKLR (receptor, phage library variant, format as m9) [TACI_d2 F78Q]",
    "F' BAFF": 0
  }
]

Now turn to the next binder.
Ask: Given the binder SLSCRKEQGKFYDHLLRDCISCASVCGQHPKQCAYFCENKLR (receptor, phage library variant, format as m9) [TACI_d2 I92V] , write its reported F' BAFF.
Result: 9
